Would you kindly list Ki for each of these molecules?
Target: α1a (bovine) adrenoreceptor (Bos taurus, UniProt P18130)
Sequence (P18130 1-466): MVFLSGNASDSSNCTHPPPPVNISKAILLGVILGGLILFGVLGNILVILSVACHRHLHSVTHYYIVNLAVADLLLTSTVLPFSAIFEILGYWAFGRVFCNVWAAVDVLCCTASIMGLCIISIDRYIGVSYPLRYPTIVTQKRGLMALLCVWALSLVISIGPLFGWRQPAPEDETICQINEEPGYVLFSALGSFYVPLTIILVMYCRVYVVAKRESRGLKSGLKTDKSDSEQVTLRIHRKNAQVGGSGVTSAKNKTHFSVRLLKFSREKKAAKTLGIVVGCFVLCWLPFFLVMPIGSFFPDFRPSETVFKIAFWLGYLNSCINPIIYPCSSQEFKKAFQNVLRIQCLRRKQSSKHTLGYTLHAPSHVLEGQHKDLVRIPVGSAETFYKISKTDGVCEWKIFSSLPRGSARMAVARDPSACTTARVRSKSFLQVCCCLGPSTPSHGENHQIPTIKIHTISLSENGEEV
Test: [3H]-prazosin radioligand binding, cloned α1a (bovine) adrenoreceptor in LTK cells
Details: cloned receptor in LTK cell membranes, [3H]prazosin 0.2 nM
Give just the numeric value; nM need not be written.

Task: Please supply the value of reported Ki for the item COc1cccc2c1N1CCN(CCn3c(=O)[nH]c4c(sc5cccnc54)c3=O)CC1CO2.Cl.Cl (single isomer, unassigned; (-)) [Example 7, dihydrochloride]
Result: 0.251

Task: Assign Ki to the following record: Cl.Cl.O=c1[nH]c2c(sc3ncccc32)c(=O)n1CCCCN1CCN2c3ccccc3OCC2C1 (single isomer, unassigned; (+)) [Example 5, dihydrochloride]
Result: 2.72

Task: Name the recorded Ki of the item COc1cccc2c1N1CCN(CCCn3c(=O)[nH]c4c(sc5cccnc54)c3=O)CC1CO2.Cl.Cl.Cl (single isomer, unassigned; (+)) [Example 17, trihydrochloride] in your answer.
Result: 2.5

* * *

Target: α1a (rat) adrenoreceptor (Rattus norvegicus)
Sequence (P43140 whole entry): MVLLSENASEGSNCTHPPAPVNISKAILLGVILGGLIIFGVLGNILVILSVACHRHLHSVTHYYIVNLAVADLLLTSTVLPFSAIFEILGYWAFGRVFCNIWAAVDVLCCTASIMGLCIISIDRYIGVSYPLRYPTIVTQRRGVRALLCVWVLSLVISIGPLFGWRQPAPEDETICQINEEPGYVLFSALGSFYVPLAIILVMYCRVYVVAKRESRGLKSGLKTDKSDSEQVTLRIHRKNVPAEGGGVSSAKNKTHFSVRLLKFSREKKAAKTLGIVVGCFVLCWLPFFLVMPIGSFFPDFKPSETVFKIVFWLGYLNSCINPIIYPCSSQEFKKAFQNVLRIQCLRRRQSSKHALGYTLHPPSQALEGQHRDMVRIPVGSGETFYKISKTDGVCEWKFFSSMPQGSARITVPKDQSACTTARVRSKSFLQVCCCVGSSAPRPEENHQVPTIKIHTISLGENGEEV
Assay: [3H]-prazosin radioligand binding, cloned α1a (rat) adrenoreceptor in LTK cells
Conditions: cloned receptor in LTK cell membranes, [3H]prazosin 0.2 nM
The threshold is 3 nM. Values of Ki beneath it are tagged yes; values meeting or exceeding it are tagged no.

Task: hey, is Ki for Cl.Cl.O=c1[nH]c2c(sc3cccnc32)c(=O)n1CCCCN1CCN2c3ccccc3OCC2C1 (single isomer, unassigned; (+)) [Example 3, dihydrochloride] lower than 3 nM or not?
Result: yes

Task: A record lists COc1cccc2c1N1CCN(CCn3c(=O)[nH]c4c(sc5ncc(Cl)nc54)c3=O)CC1CO2.Cl.Cl (single isomer, unassigned; (-)) [Example 13, dihydrochloride] . Is its Ki below 3 nM?
Result: yes

Task: Does this compound meet the criterion Ki < 3 nM? COc1cccc2c1N1CCN(CCn3c(=O)[nH]c4c(sc5ncc(Cl)nc54)c3=O)CC1CO2.Cl.Cl (single isomer, unassigned; (+)) [Example 8, dihydrochloride]
Result: yes

Task: Please state whether Ki is below 3 nM for Cl.Cl.O=c1[nH]c2c(sc3ncccc32)c(=O)n1CCCCN1CCN2c3ccccc3OCC2C1 (single isomer, unassigned; (-)) [Example 6, dihydrochloride]
Result: no

Task: Is 3 nM strictly greater than the compound's reported Ki? compound: Cl.Cl.O=c1[nH]c2c(sc3ncccc32)c(=O)n1CCCCN1CCN2c3ccccc3OCC2C1 (single isomer, unassigned; (+)) [Example 5, dihydrochloride]
Result: no

* * *

Assign Ki to each entry below.
Biological target: α1b (Hamster) adrenoreceptor (Mesocricetus auratus, UniProt P18841)
Sequence (P18841 whole entry): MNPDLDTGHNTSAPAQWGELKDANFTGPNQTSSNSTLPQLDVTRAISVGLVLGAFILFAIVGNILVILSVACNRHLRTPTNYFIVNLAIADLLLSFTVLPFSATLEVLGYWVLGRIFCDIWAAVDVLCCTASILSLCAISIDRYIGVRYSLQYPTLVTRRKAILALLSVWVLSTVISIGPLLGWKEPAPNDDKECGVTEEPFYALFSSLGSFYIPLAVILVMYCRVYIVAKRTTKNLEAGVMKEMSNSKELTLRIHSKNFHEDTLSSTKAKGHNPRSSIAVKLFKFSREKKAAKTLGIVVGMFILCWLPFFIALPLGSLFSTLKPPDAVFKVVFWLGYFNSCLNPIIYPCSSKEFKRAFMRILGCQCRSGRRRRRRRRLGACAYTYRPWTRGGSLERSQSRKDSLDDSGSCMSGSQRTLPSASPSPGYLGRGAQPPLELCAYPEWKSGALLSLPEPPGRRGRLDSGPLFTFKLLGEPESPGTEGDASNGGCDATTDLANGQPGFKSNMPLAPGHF
Assay: [3H]-prazosin radioligand binding, cloned α1b (hamster) adrenoreceptor in LTK cells
Details: cloned receptor in LTK cell membranes, [3H]prazosin 0.2 nM
Where a name gives a salt, the structure may show the parent alone.
Please answer using the number first and the unit second.

Task: Please list Ki recorded for the molecule Cl.Cl.O=c1[nH]c2c(sc3cccnc32)c(=O)n1CCCCN1CCN2c3ccccc3OCC2C1 (single isomer, unassigned; (+)) [Example 3, dihydrochloride]
Result: 32.4 nM

Task: Please give measured Ki of the following entry: Cl.Cl.O=c1[nH]c2c(sc3cccnc32)c(=O)n1CCCN1CCN2c3ccccc3OCC2C1 (single isomer, unassigned; (+)) [Example 1, dihydrochloride]
Result: 14.3 nM

Task: In one line, give reported Ki of the entry COc1cccc2c1N1CCN(CCCCn3c(=O)[nH]c4c(sc5ncc(Cl)nc54)c3=O)CC1CO2.Cl.Cl (single isomer, unassigned; (-)) [Example 12, dihydrochloride] .
Result: 8.91 nM

Task: Retrieve Ki measured for COc1cccc2c1N1CCN(CCn3c(=O)[nH]c4c(sc5ncc(Cl)nc54)c3=O)CC1CO2.Cl.Cl (single isomer, unassigned; (-)) [Example 13, dihydrochloride] and print it.
Result: 39.1 nM

Task: Return Ki for the following molecule: COc1cccc2c1N1CCN(CCCn3c(=O)[nH]c4c(sc5cccnc54)c3=O)CC1CO2.Cl.Cl.Cl (single isomer, unassigned; (-)) [Example 9, trihydrochloride]
Result: 3.86 nM

Task: Quick one: give measured Ki for O=c1[nH]c2c(sc3cccnc32)c(=O)n1CCCCN1CCN2c3ccccc3OCC2C1 (single isomer, unassigned; (-)) [Example 4, dihydrochloride]
Result: 26.5 nM
